METHOD DESCRIPTION: pharmacokinetic study in rats, i.v. dosing
Assay type: in vivo
RECORDED CONDITIONS: male, Sprague-Dawley, rat, plasma, iv, 2 nmol/kg, t½ (min), mean
Positions of bridges follow the written chain, without caps; N, C: chain ends. Residues, ends and D or L forms follow the SMILES beside them.
METRIC NAME: half-life (min)

MOLECULE	METRIC NAME	MEASURED
CC(=O)N[C@@H](C)C(=O)N[C@H]1CSSC[C@@H](C(=O)O)NC(=O)[C@H](Cc2ccccc2)NC(=O)[C@@H]2CCCN2C(=O)[C@H](Cc2c[nH]c3ccccc23)NC(=O)[C@H](CC(C)C)NC(=O)[C@H](CC(C)C)NC(=O)[C@H](CC(=O)O)NC(=O)[C@H](Cc2ccccc2)NC(=O)[C@H](Cc2c[nH]cn2)NC(=O)[C@H]([C@@H](C)O)NC(=O)[C@H](Cc2ccccc2)NC1=O [B_1275.5] (Ac-ACFTHFDLLWPFC-OH; disulfide 2-13)	half-life	1.8

Measured values drawn from paper PMC8926291 for this set.
